test: method code SF, from DOI: 10.1002/qsar.19830020303
true (1) if logP is below 0. false (0) if not; exact matches included in false (0).

Reference set (3 entries):
- CN(C)c1ccc(Cl)nn1: false (0)
- NC(=S)c1cccnc1: false (0)
- CN(C)c1cccnn1: false (0)

Could you now look at the following compound, please?
hey, is logP for NNC(=O)c1ccc2ncccc2c1 lower than 0 or not?
false (0)

* * *

Define the label as Criterion met when logP is strictly less than 2 and as Criterion not met in all remaining cases.

• Nc1ncnc2ccccc12 = Criterion met
• COc1ccnc2c([N+](=O)[O-])cccc12 = Criterion met
• CN(C)c1ccc2ccccc2n1 = Criterion not met

Lab log: compare recorded logP with 2; is it strictly lower for COc1nc(-c2ccccc2)c2ccccc2n1 ?
Criterion not met

Decide: logP of CC(=O)c1cc2ccccc2nn1 strictly below 2?
Criterion met

Is logP strictly under 2 for the entry CSc1ccccn1 ?
Criterion met

Bench note: check whether CCOC(=O)c1ccc2ncccc2c1 shows logP below 2
Criterion not met

Say whether its logP is strictly beneath 2. Entry: CSc1ccc(SC)nn1
Criterion met

Regarding COC(=O)c1cnc2ccccc2c1 , kindly confirm whether its logP is beneath 2.
Criterion not met

Please determine if NNc1ncnc2ccccc12 is below 2 in terms of logP.
Criterion met

Hello, I'm reviewing records and need to know if logP of O=[N+]([O-])c1cc2ccccc2nn1 is below 2. Could you check?
Criterion met

Does this compound meet the criterion logP < 2? c1ccc(-c2ncnc3ccccc23)cc1
Criterion not met

* * *

experiment: method code SF, from DOI: 10.1002/qsar.19830020303
logP values, listed per item
A bare number is all that is needed in reply.

Below, 3 compounds whose answers are already recorded.
* CSc1ccc2ccccc2n1 | 3.04
* NC(=O)c1ccncc1 | -0.28
* NC(=O)c1ccc(Cl)nn1 | 0

logP in this record for NS(=O)(=O)c1cccnc1 : -0.49

logP reported for this compound COC(=O)c1cnccn1 : -0.17

CN(C)C(=O)c1cccnc1 has a reported logP of -0.48

* * *

logP: recorded values
Answer with the value's number alone.

Examples with their reported logP follow.
* Cc1cnnc2cc(Cl)ccc12 | 1.98
* CN(C)c1ccc(N(C)C)nn1 | 0.99
* O=CNc1cccc2cccnc12 | 1.8

Item: CC(=O)Nc1ccc2cccnc2c1 | logP: 1.55

* * *

test: method code SF, from DOI: 10.1002/qsar.19830020303
Where logP equals or exceeds 0.1, the correct label is criterion met; where it does not, the label is criterion not met.

Hi team, for CCOC(=O)c1ccc(Cl)nn1 , is the recorded logP at or above 0.1?
criterion met

Exam item: decide whether the reported logP for Cc1cc(N)nc(C)n1 is at least 0.1.
criterion met

* * *

observationType: logP
Would you mind answering with just the numeric figure?

- Nc1cnnc2ccccc12: 1.04
- CNc1nc(-c2ccccc2)c2ccccc2n1: 3.58
- NC(=O)c1cnc2ccccc2c1: 1.06

The molecule c1ccc(Nc2ccccn2)cc1 showed logP equal to 2.75

Lookup result for c1ccc(-c2nnco2)cc1 ; measured logP: 1.31

Entry NC(=O)c1cnc2ccccc2n1 ; logP = 0.98

Entry Clc1cc2ccccc2nn1 , logP reported as 1.57

Looking up c1ccc2c(NC3CCCC3)ncnc2c1 , I see its logP listed as 2.61
